// provenance: patent US20070276034A1

Tested System: IAPP fibrils (Homo sapiens, UniProt P10997)
Construct: purchased Bachem Inc
Sequence (P10997 34-70 limits assumed): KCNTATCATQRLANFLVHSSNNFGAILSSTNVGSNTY
Assay: Thioflavin T fluorometry - disruption of type 2 diabetes IAPP fibrils
Format: biochemical
Assay Context: IAPP:test compound wt/wt ratio 1:0.01; 25 μM pre-fibrillized IAPP, 37° C., 3 days; read-out: % Inhibition IAPP (result ± S.D.)
Measured inhibition of individual entries

{"columns": ["Molecule", "Unit Info", "inhibition"],
 "data": [
  ["Oc1ccc(CN(Cc2ccc(O)c(O)c2)Cc2ccc(O)c(O)c2)cc1O [Compound 75, tris(3,4-dihydroxybenzyl)amine]", "%", 43.9],
  ["O=C(C=Cc1ccc(O)c(O)c1)NCc1ccc(O)c(O)c1", "%", 35.4],
  ["Cc1nc(-c2ccc(O)c(O)c2)cc(-c2ccc(O)c(O)c2)c1C#N", "%", 29.6],
  ["O=C(CCc1ccc(O)c(O)c1)NCc1ccc(O)c(O)c1", "%", 48.8],
  ["O=C(CCC(=O)Nc1ccc(O)c(O)c1)Nc1ccc(O)c(O)c1 [Compound 66, succinic acid bis(3,4-dihydroxyanilide)]", "%", 47.6],
  ["O=C(CCc1ccc(O)c(O)c1)Nc1ccc(O)c(O)c1", "%", 37.3],
  ["O=C(Nc1ccc(O)c(O)c1)Nc1ccc(O)c(O)c1 [Compound 76, 1,3-bis(3,4-dihydroxyphenyl)urea]", "%", 41.5],
  ["O=C(CCC(=O)NCc1ccc(O)c(O)c1)NCc1ccc(O)c(O)c1", "%", 34.8],
  ["O=C(NCc1ccc(O)c(O)c1)c1ccc(O)c(O)c1", "%", 49.2],
  ["O=C(Nc1ccc(O)c(O)c1)C(=O)Nc1ccc(O)c(O)c1 [Compound 63, oxalic acid bis(3,4-dihydroxyanilide)]", "%", 56.2]
]}

----------
Tested System: IAPP fibrils (Homo sapiens, UniProt P10997)
Construct: purchased Bachem Inc
Assay: Congo red binding assay with IAPP fibrils
Assay type: biochemical
Assay Context: IAPP:test compound wt/wt ratio 1:1; 3-day incubation
Endpoint Name: % Inhibition IAPP (result ± S.D.), Congo red binding (%)

{"columns": ["Compound", "Unit Info", "Result"],
 "data": [
  ["O=C(CCC(=O)NCc1ccc(O)c(O)c1)NCc1ccc(O)c(O)c1", "%", 26.3],
  ["O=C(Nc1ccc(O)c(O)c1)Nc1ccc(O)c(O)c1 [Compound 76, 1,3-bis(3,4-dihydroxyphenyl)urea]", "%", 53.9],
  ["O=C(CCc1ccc(O)c(O)c1)Nc1ccc(O)c(O)c1", "%", 15.7],
  ["O=C(c1ccc(O)c(O)c1)C(O)c1ccc(O)c(O)c1 (stereo not shown) [Compound 1, 3,4,3′,4′-tetrahydroxybenzoin]", "%", 40.7],
  ["O=C(c1ccc(O)c(O)c1)N1CCN(C(=O)c2ccc(O)c(O)c2)CC1 [Compound 23, 1,4-bis(3,4-dihydroxybenzoyl)piperazine]", "%", 5.5],
  ["Oc1ccc(CN(Cc2ccc(O)c(O)c2)Cc2ccc(O)c(O)c2)cc1O [Compound 75, tris(3,4-dihydroxybenzyl)amine]", "%", 49.0],
  ["CN1C2CCC1C(Cc1ccc(O)c(O)c1)C(=O)C2Cc1ccc(O)c(O)c1 (stereo not shown) [Compound 19, 2,4-bis(3,4-dihydroxybenzyl)-3-tropinone]", "%", 49.3],
  ["O=C(N[C@@H]1CCCC[C@H]1NC(=O)c1ccc(O)c(O)c1)c1ccc(O)c(O)c1 (relative stereo)", "%", 0.0],
  ["O=C(CCC(=O)Nc1ccc(O)c(O)c1)Nc1ccc(O)c(O)c1 [Compound 66, succinic acid bis(3,4-dihydroxyanilide)]", "%", 41.4],
  ["Oc1ccc(CN[C@@H]2CCCC[C@H]2NCc2ccc(O)c(O)c2)cc1O (relative stereo)", "%", 39.8],
  ["O=C(NCCc1ccc(O)c(O)c1)Nc1ccc(O)c(O)c1", "%", 56.3],
  ["O=C(Nc1ccc(O)c(O)c1)c1ccc(O)c(O)c1", "%", 55.6],
  ["O=C(C=Cc1ccc(O)c(O)c1)NCc1ccc(O)c(O)c1", "%", 23.7],
  ["Cc1nc(-c2ccc(O)c(O)c2)cc(-c2ccc(O)c(O)c2)c1C#N", "%", 0.0],
  ["O=C(NCc1ccc(O)c(O)c1)c1ccc(O)c(O)c1", "%", 31.3],
  ["O=C(NCc1ccc(O)c(O)c1)C(=Cc1ccc(O)c(O)c1)NC(=O)c1ccc(O)c(O)c1", "%", 35.9]
]}

----------
Each entry below lists one item and its recorded % Inhibition IAPP (result ± S.D.), Congo red binding value.
Tested System: IAPP fibrils (Homo sapiens)
Construct: purchased Bachem Inc
Assay: Congo red binding assay with IAPP fibrils
Format: biochemical
Assay Context: IAPP:test compound wt/wt ratio 1:0.1; 3-day incubation
Endpoint Name: % Inhibition IAPP (result ± S.D.), Congo red binding (%)

{"columns": ["Molecule", "Unit Info", "Result"],
 "data": [
  ["O=C(C=Cc1ccc(O)c(O)c1)NCc1ccc(O)c(O)c1 [Compound 61]", "%", 0.0],
  ["O=C(c1ccc(O)c(O)c1)C(O)c1ccc(O)c(O)c1 (centres unmarked) [Compound 1, 3,4,3′,4′-tetrahydroxybenzoin]", "%", 10.6],
  ["O=C(NCc1ccc(O)c(O)c1)C(=Cc1ccc(O)c(O)c1)NC(=O)c1ccc(O)c(O)c1 [Compound 21]", "%", 10.4],
  ["O=C(CCC(=O)NCc1ccc(O)c(O)c1)NCc1ccc(O)c(O)c1 [Compound 67]", "%", 5.5],
  ["O=C(Nc1ccc(O)c(O)c1)c1ccc(O)c(O)c1 [Compound 51]", "%", 27.5],
  ["O=C(c1ccc(O)c(O)c1)N1CCN(C(=O)c2ccc(O)c(O)c2)CC1 [Compound 23, 1,4-bis(3,4-dihydroxybenzoyl)piperazine]", "%", 4.5],
  ["Oc1ccc(Cc2ccc(O)c(O)c2)cc1O [Compound 3, 3,4,3′,4′-tetrahydroxydiphenylmethane]", "%", 37.9],
  ["Oc1ccc(CCc2ccc(O)c(O)c2)cc1O [Compound 4, 1,2-bis(3,4-dihydroxyphenyl)ethane]", "%", 25.4]
]}

----------
Tested System: Aβ 1-42 fibrils (Homo sapiens)
Construct: purchased Bachem Inc
Sequence (P05067 672-713): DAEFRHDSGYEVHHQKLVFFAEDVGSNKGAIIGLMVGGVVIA
Assay: Thioflavin T fluorometry - disruption of pre-formed Aβ 1-42 Alzheimer's fibrils
Type: biochemical
Assay Context: Aβ:test compound wt/wt ratio 1:1; 25 μM pre-fibrillized Aβ 1-42, 37° C., 3 days; read-out: % Inhibition Aβ (result ± S.D.)
Recorded inhibition, one value per entry.

{"columns": ["Compound", "inhibition"],
 "data": [
  ["Oc1ccc(CN(Cc2ccc(O)c(O)c2)Cc2ccc(O)c(O)c2)cc1O [Compound 75, tris(3,4-dihydroxybenzyl)amine]", "99%"],
  ["Cc1nc(-c2ccc(O)c(O)c2)cc(-c2ccc(O)c(O)c2)c1C#N [Compound 8]", "70.8%"],
  ["O=C(NCc1ccc(O)c(O)c1)C(=Cc1ccc(O)c(O)c1)NC(=O)c1ccc(O)c(O)c1 [Compound 21]", "98.6%"],
  ["O=C(c1ccc(O)c(O)c1)N1CCN(C(=O)c2ccc(O)c(O)c2)CC1 [Compound 23, 1,4-bis(3,4-dihydroxybenzoyl)piperazine]", "46.7%"]
]}

----------
Tested System: NAC fibrils (Homo sapiens, UniProt P37840)
Construct: NAC is a 35-amino acid fragment of α-synuclein; purchased Bachem Inc
Assay: Thioflavin T fluorometry - disruption of Parkinson's disease NAC fibrils
Type: biochemical
Assay Context: NAC:test compound wt/wt ratio 1:0.001; 25 μM pre-fibrillized NAC, 37° C., 3 days; read-out: % Inhibition NAC (result ± S.D.)
Endpoint Name: inhibition (%)

{"columns": ["Compound", "Endpoint Name", "Result"],
 "data": [
  ["O=C(c1ccc(O)c(O)c1)C(O)c1ccc(O)c(O)c1 (stereo not shown) [Compound 1, 3,4,3′,4′-tetrahydroxybenzoin]", "inhibition", 0],
  ["O=C(CCC(=O)NCc1ccc(O)c(O)c1)NCc1ccc(O)c(O)c1", "inhibition", 11.9],
  ["O=C(NCc1ccc(O)c(O)c1)c1ccc(O)c(O)c1", "inhibition", 13.8],
  ["O=C(CCC(=O)Nc1ccc(O)c(O)c1)Nc1ccc(O)c(O)c1 [Compound 66, succinic acid bis(3,4-dihydroxyanilide)]", "inhibition", 30.5],
  ["O=C(Nc1ccc(O)c(O)c1)C(=O)Nc1ccc(O)c(O)c1 [Compound 63, oxalic acid bis(3,4-dihydroxyanilide)]", "inhibition", 17.3],
  ["O=C(c1ccc(O)c(O)c1)N1CCN(C(=O)c2ccc(O)c(O)c2)CC1 [Compound 23, 1,4-bis(3,4-dihydroxybenzoyl)piperazine]", "inhibition", 0],
  ["O=C(N[C@@H]1CCCC[C@H]1NC(=O)c1ccc(O)c(O)c1)c1ccc(O)c(O)c1 (relative stereo)", "inhibition", 0]
]}

----------
Tested System: IAPP fibrils (Homo sapiens)
Construct: purchased Bachem Inc
Assay: Thioflavin T fluorometry - disruption of type 2 diabetes IAPP fibrils
Format: biochemical
Assay Context: IAPP:test compound wt/wt ratio 1:1; 25 μM pre-fibrillized IAPP, 37° C., 3 days; read-out: % Inhibition IAPP (result ± S.D.)

{"columns": ["Compound", "Unit Info", "inhibition"],
 "data": [
  ["Oc1ccc(CN(Cc2ccc(O)c(O)c2)Cc2ccc(O)c(O)c2)cc1O [Compound 75, tris(3,4-dihydroxybenzyl)amine]", "%", 100],
  ["O=C(NCCc1ccc(O)c(O)c1)Nc1ccc(O)c(O)c1", "%", 99.5],
  ["O=C(Nc1ccc(O)c(O)c1)c1ccc(O)c(O)c1", "%", 99.9],
  ["O=C(NCc1ccc(O)c(O)c1)C(=Cc1ccc(O)c(O)c1)NC(=O)c1ccc(O)c(O)c1", "%", 98.5],
  ["O=C(Nc1ccc(O)c(O)c1)Nc1ccc(O)c(O)c1 [Compound 76, 1,3-bis(3,4-dihydroxyphenyl)urea]", "%", 99.6],
  ["O=C(CCC(=O)Nc1ccc(O)c(O)c1)Nc1ccc(O)c(O)c1 [Compound 66, succinic acid bis(3,4-dihydroxyanilide)]", "%", 98.5]
]}
